# Assay overview: NCI Yeast Anticancer Drug Screen. Data for the rad50 strain (AID 155);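 note: 0% = growth of vehicle-only cultures of the same strain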
# Assay setup: S. cerevisiae rad50 strain growth inhibition; at 50.0 µM (retest, dose inferred, filed as 5.0)
This is part of a sample that, as a whole, favours compounds with a hit. Of some 79,000 tested, about 15% had one in any assay. Calls of active or inactive are those of the source. Cut-off read from the data, not from the text of the source: active = growth inhibition above about 70%; inactive = the rest.
Use one of these outcomes when replying: active, inactive

Record lookup: outcome of this test for COC(=O)[C@@H](NS(=O)(=O)CC12CCC(CC1)C2(C)C)C(C)(C)C ?
inactive

Record lookup: outcome of this test for Clc1c(C(Cl)(Cl)Cl)nsc1N1CCCCC1 ?
inactive

====

# Assay overview: NCI Yeast Anticancer Drug Screen. Data for the cln2 rad14 strain (AID 165);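 note: 0% = growth equal to vehicle treated cultures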
# Assay setup: S. cerevisiae cln2 rad14 strain, at 5.0 µM (retest, dose inferred, filed as 0.5)
About 79,000 compounds went through this panel and 15% of them were active in at least one assay; those are over-represented in the sample as a whole. Calls of active or inactive are those of the source. Rule as the data show it: active = growth inhibition above about 70%; inactive = the rest.
Use one of these outcomes when replying: label 1 for active, label 0 for inactive

Consider the following illustrative entries.
{"columns": ["Compound", "Group"],
 "data": [
  ["CC1=CC(C)=Nc2ccc(Cl)cc2N1", "label 0"],
  ["OC(CN1CCCC2CCCCC21)c1cc2ccccc2c2ccccc12 (stereo not drawn)", "label 0"],
  ["Nc1ncnc2c1ncn2CCCl", "label 0"]
]}

Record lookup: outcome of this test for O=C1NC(=O)c2cc([N+](=O)[O-])ccc21 ?
label 0

Record lookup: outcome of this test for CC(=O)Nc1cc(C)ccc1C ?
label 0

Record lookup: outcome of this test for O=C1c2ccccc2-n2c1nc1ccccc1c2=O ?
label 0

Record lookup: outcome of this test for OC1(C2C=CC=C2)c2ccccc2C=Cc2ccccc21 ?
label 0

Record lookup: outcome of this test for CC(C)(C)c1ccc(-c2c3ccccc3cc3ccccc23)cc1 ?
label 0

Record lookup: outcome of this test for COC(O)C(=O)c1c2c(cc3c1CCC3)CCCC2 (stereo not drawn) ?
label 1

Record lookup: outcome of this test for CCSC1=C(C)C(=O)c2ccccc2C1=O ?
label 0

Record lookup: outcome of this test for O=Cc1cc([N+](=O)[O-])cc(CCl)c1O ?
label 0

Record lookup: outcome of this test for CC(=O)Nc1nc([N+](=O)[O-])c(C(C)C)s1 ?
label 0

Record lookup: outcome of this test for COc1cc2c(cc1OC)C(Cc1c3ccccc3cc3ccccc13)N(C)CC2 (stereo not drawn) ?
label 0

====

In this section, each of the compounds is paired with its reported growth inhibition.
# Assay overview: NCI Yeast Anticancer Drug Screen. Data for the mlh1 rad18 strain (AID 175)
# Assay setup: S. cerevisiae mlh1 rad18 strain growth inhibition; at 50.0 µM (retest, dose inferred, filed as 5.0); hits give high values
Compounds without any hit were thinned out: in the full panel of roughly 79,000, 15% have a hit. Active and inactive are the calls of the source. Cut-off read from the data, not from the text of the source: active = growth inhibition above about 70%; inactive = the rest.

Answered cases to consult:
{"columns": ["Compound", "growth inhibition"],
 "data": [
  ["Cc1c(C)c(CCl)c(C)c(C)c1CCl", "95% (active)"],
  ["O=C(c1ccco1)N(C(=S)N1CCN(c2ccccn2)CC1)C1CCCCC1", "80% (active)"],
  ["COc1ccc2c(c1)c[n+](C)c1c3cc(OC)c(OC)cc3ccc21", "19% (inactive)"]
]}

Note growth inhibition for the compound shown: Cc1cc(/C=C/C2CCC3CC(C)CCC3N2CCO)c(C)n1-c1ccccc1 (stereo unspecified)
97% (active)

Note growth inhibition for the compound shown: O=C1C=CC(=O)c2c1ccc1c3ccccc3n(Cc3ccccc3)c21
90% (active)

Note growth inhibition for the compound shown: O=[N+]([O-])c1ccc(OCCN(Cc2ccccc2)Cc2ccccc2)c([N+](=O)[O-])c1
58% (inactive)

Note growth inhibition for the compound shown: CC(=O)Oc1ccc2c(c1)Oc1cc(OC(C)=O)ccc1C21OC(=O)c2ccccc21
24% (inactive)

Note growth inhibition for the compound shown: COC(=O)CSC(=S)N1CCOCC1
5% (inactive)

Note growth inhibition for the compound shown: N=C1N(c2ccccc2)C(=S)C(=Nc2ccccc2)N1c1ccccc1
99% (active)

Note growth inhibition for the compound shown: CCCCCCCCCCCCCCCC(=O)NCC[N+](C)(C)C
99% (active)

Note growth inhibition for the compound shown: Cc1nc2ccccc2cc1CCl
90% (active)

====

In this section, each of the compounds is paired with its reported growth inhibition.
# Assay overview: NCI Yeast Anticancer Drug Screen. Data for the cln2 rad14 strain (AID 165);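 note: 0% = growth equal to vehicle treated cultures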
# Assay setup: S. cerevisiae cln2 rad14 strain, at 50.0 µM, hits give high values
About 79,000 compounds went through this panel and 15% of them were active in at least one assay; those are over-represented in the sample as a whole.
Response body: numeric value in %, unit text excluded.

Answered cases to consult:
{"columns": ["Compound structure string", "Readout units", "Value observed"],
 "data": [
  ["Cc1cc2c(c(Br)c1O)Oc1c(cc(C)c(O)c1Br)C21OC(=O)c2ccccc21", "%", 92.5],
  ["CCc1[nH]c(=O)nc(N)c1-c1ccc(N2CCCCC2)c([N+](=O)[O-])c1", "%", 70.8],
  ["CCN(CC)CCOc1ccc2c(C)c(-c3ccccc3)c(=O)oc2c1", "%", -44.8]
]}

Note growth inhibition for the compound shown: Clc1c(C(Cl)(Cl)Cl)nsc1N1CCCCC1
28

Note growth inhibition for the compound shown: CN(C)/C=C1\CCc2ccc([N+](=O)[O-])cc2C1=O
12.1

Note growth inhibition for the compound shown: COc1cccc(NC(=S)N2CCCCC2)c1
-82.4

====

# Assay overview: NCI Yeast Anticancer Drug Screen. Data for the mec2-1 strain (AID 157)
# Assay setup: S. cerevisiae mec2-1 strain, at 5.0 µM (retest, dose inferred, filed as 0.5)
# Description: Growth inhibition of yeast strains with defined genetic alterations is measured as a screen for potential anti-cancer activity. Selected strains with alterations in DNA damage repair or cell cycle control were exposed to compounds and growth inhibition was measured relative to vehicle treated controls. The strain used in this assay is mec2-1
The panel holds about 79,000 compounds, 15% with a hit somewhere; the sample as a whole holds those more often. Activity calls are given as the source filed them. Rule as the data show it: active = growth inhibition above about 70%; inactive = the rest.
Use one of these outcomes when replying: active, inactive

{"columns": ["Compound", "Group"],
 "data": [
  ["C=CC(=O)OCCOc1ccc(Cl)cc1Cl", "inactive"],
  ["Cc1nnc(S(=O)(=O)c2ccc(N=Nc3c(N)nc(N)nc3N)cc2)s1", "inactive"]
]}

Record lookup: outcome of this test for COc1cccc2c1C(=O)c1c(O)c3c(c(O)c1C2=O)C[C@@](O)(C(C)=O)C[C@@H]3OC1CC(N(C)C)C(O)C(C)O1 (stereo not given in full) ?
active

Record lookup: outcome of this test for COC1/C=C\C=C(/C)C(=O)Nc2cc3nc4ccc(Br)cc4oc-3c(c2=O)CC(C)CC(OC)C(O)C(C)/C=C(\C)C1OC(N)=O (stereo not given) ?
inactive

Record lookup: outcome of this test for CC(C)C1=CC23CCC4C(C)(C(=O)O)CCCC4(C)C2CC1C1C(=O)OC(=O)C13 (stereo not given) ?
active

====

In this section, each of the molecules is paired with its reported growth inhibition.
# Assay overview: NCI Yeast Anticancer Drug Screen. Data for the bub3 strain (AID 167)
# Assay setup: S. cerevisiae bub3 mutant strain, at 50.0 µM (retest, dose inferred, filed as 5.0), hits give high values
# Experimental: Growth inhibition of yeast strains with defined genetic alterations is measured as a screen for potential anti-cancer activity. Selected strains with alterations in DNA damage repair or cell cycle control were exposed to compounds and growth inhibition was measured relative to vehicle treated controls. The strain used in this assay is bub3
Compounds without any hit were thinned out: in the full panel of roughly 79,000, 15% have a hit.
Response body: numeric value in %, unit text excluded.

Note growth inhibition for the molecule shown: CC(NC(=O)C(N)Cc1ccccc1)C(=O)NC1C(CO)OC(n2cnc3c(N)ncnc32)C1O (stereo not given)
-4

Note growth inhibition for the molecule shown: O=C1c2ccccc2-n2c1nc1ccccc1c2=O
57

Note growth inhibition for the molecule shown: CC1CC[P+](c2ccccc2)(c2ccccc2)c2c1ccc1ccccc21 (stereo not given)
99

Note growth inhibition for the molecule shown: CCSSC(=Nc1ccccc1)OCC(C)C
97

Note growth inhibition for the molecule shown: CCOc1ccc(N/N=C(\CCC(=O)O)C(=O)O)cc1
-45

Note growth inhibition for the molecule shown: Cc1nc2c(nc1C)C(=O)c1ccccc1C2=O
99

Note growth inhibition for the molecule shown: Nc1ccc(N=Nc2ccccc2)c(N)n1
-26

Note growth inhibition for the molecule shown: CCC(C)c1ccc(O)c(C(C)CC)c1 (stereo not given)
63

Note growth inhibition for the molecule shown: O=[N+]([O-])c1ccc2ccccc2c1O
93

Note growth inhibition for the molecule shown: CC(=O)OC(c1ccccc1)c1ccc(Cl)cc1 (stereo not given)
8

Note growth inhibition for the molecule shown: Nc1nc(N)c2c(Cl)c(CNc3ccc(Cl)c(Cl)c3)ccc2n1
98

Note growth inhibition for the molecule shown: CC(=O)OCC(=O)[C@H]1CC[C@H]2[C@@H]3CC=C4C[C@@H](O)CC[C@]4(C)[C@H]3CC[C@]12C
91

Note growth inhibition for the molecule shown: C=C1C(=O)N2c3ccccc3C(C)(C)C2(S)C(=O)N1C (stereo not given)
78

Note growth inhibition for the molecule shown: Nc1ccc2c(ccc3ccc4ccccc4c32)c1
97

Note growth inhibition for the molecule shown: O=[N+]([O-])c1cc([N+](=O)[O-])c2ccccc2c1NS(=O)(=O)/C=C/c1ccccc1
42
